Assignment: determine reported z-score for the given compounds.
assay: PSAC antagonists in infected red cells, primary screen, cell-based, P. falciparum Indochina, OD700, 18 h (AID 1157); conditions: P. falciparum Indochina infected erythrocytes, osmotic lysis OD700, 18 h; higher = more signal, called active from +8 up or from −8 down
Activity calls are given as the source filed them.

So for CN1C(=O)C2C=CC(C(O)C3CCCCC3)N(Nc3ccc([N+](=O)[O-])cc3[N+](=O)[O-])C2C1=O (configuration not stated) , the logged z-score turned out to be 0.532 (inactive)

So for COc1cc2c(cc1O)C(C1CC1)N(Cc1cc3c(cc1Br)OCO3)CC2 (configuration not stated) , the logged z-score turned out to be 0.72 (inactive)

So for CCC(CC)C(O)C1C=CC2C(=O)N(C)C(=O)C2N1Nc1ccccc1 (configuration not stated) , the logged z-score turned out to be 0.951 (inactive)

So for CCOC(=O)[C@H]1C/C=C/C[C@H](C(=O)OCC)C(=O)O[C@H]2[C@@H](OC)O[C@H](CO)[C@@H](OC(=O)Nc3cccc(F)c3)[C@@H]2OC1=O , the logged z-score turned out to be 1.61 (inactive)

So for CC[C@@H]1C=C(C(=O)O)[C@H](c2ccco2)N1S(=O)(=O)c1ccc(C)cc1 , the logged z-score turned out to be 0.953 (inactive)

So for Cc1ccc(C(C)CC(O)C2C=CC3C(=O)N(c4ccccc4)C(=O)C3N2Nc2ccc([N+](=O)[O-])cc2)o1 (configuration not stated) , the logged z-score turned out to be 1.49 (inactive)

So for COCCOC(=O)N1C(=O)[C@@]2(c3cc(C#CC4=CCCCC4)ccc31)[C@H](C(N)=O)[C@H]1C(=O)O[C@H](c3ccccc3)[C@H](c3ccccc3)N1[C@@H]2c1ccc(OCCO)cc1 , the logged z-score turned out to be 1.96 (inactive)

---

assay: modulators of S6 phosphorylation in cells, primary screen, cell-based, A549, cytoblot, luminescence, serum-stimulated (AID 1158); conditions: A549 phospho-S6 cytoblot, 5 h, higher = more signal;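 further: serum-stimulated A549 lung adenocarcinoma cells; signal is phosphorylated S6 detected by cytoblot immunostaining with HRP secondary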
REPORTED_ENDPOINT: z-score
Number only, no unit.

So for C=CC[C@]1(C(=O)NCCCOC)N=C(c2ccc(OCCCO)cc2)O[C@H]1c1ccccc1N=[N+]=[N-] , the logged z-score turned out to be -0.403

So for O=C1c2ccccc2[C@](Cc2ccccc2I)(C(=O)NC2CC2)[C@H](c2ccc(CO)cc2)N1Cc1ccccc1 , the logged z-score turned out to be -0.132

So for COC(=O)[C@@]1(Cc2ccc(F)cc2)[C@@H]2[C@@H](CC(=O)[C@H]2CC(=O)C(=O)N(C)C)CN1C(=O)c1ccccc1 , the logged z-score turned out to be -0.761

So for C#CCNC(=O)[C@H](Cc1ccccc1)NC(=O)CCC(=O)O , the logged z-score turned out to be -0.665

So for O=C1[C@H]2C=C(Br)[C@H](C[C@@H]2OCCCCO)[C@@]12CO2 , the logged z-score turned out to be -0.401

So for C=CCOC(=O)[C@@H]1[C@H]2C(=O)O[C@H](c3ccccc3)[C@H](c3ccccc3)N2[C@H](c2ccc(OCCOC(=O)[C@@H]3C[C@@H]4C(=O)N5CCC[C@H]5C(=O)N4[C@@H]3c3ccc(O)cc3)cc2)[C@@]12C(=O)Nc1ccc(I)cc12 , the logged z-score turned out to be 3.17

So for COC(=O)[C@@]1(Cc2ccc(OC)cc2)[C@H]2c3cc(C(=O)N4CCCC4)n(Cc4ccccc4)c3C[C@H]2CN1C(=O)c1ccccc1 , the logged z-score turned out to be -0.378

So for COCCOC(=O)N1C(=O)[C@@]2(c3cc(C#CC4=CCCCC4)ccc31)[C@H](C(N)=O)[C@H]1C(=O)O[C@H](c3ccccc3)[C@H](c3ccccc3)N1[C@@H]2c1ccc(OCCO)cc1 , the logged z-score turned out to be 0.375

So for CC(C)C[C@@H]1NC(=O)[C@@H]2C[C@H](C(=O)NCCCCCN)[C@H](c3cccc(OCCO)c3)N2C1=O , the logged z-score turned out to be 0.836

So for COc1ccc(NN2C(C(O)c3ccc([N+](=O)[O-])cc3)C=CC3C(=O)N(C4CCCCC4)C(=O)C32)cc1 (stereo not drawn) , the logged z-score turned out to be -0.126

So for O=C(NCc1ccccc1)[C@@H]1c2ccccc2C(=O)N(CC23CC4CC(CC(C4)C2)C3)[C@H]1c1ccc(CO)cc1 , the logged z-score turned out to be -0.366

So for COC(=O)[C@@]1(Cc2ccc(OC)cc2)[C@H]2c3cc(C(=O)N4CCCC4)n(Cc4ccsc4Br)c3C[C@H]2CN1C(=O)c1ccccc1 , the logged z-score turned out to be 0.0613

So for O=C1OCCC/C=C\[C@H]2OC34C=CCN(Cn5nnc6ccccc65)C(=O)[C@H]3N(CCCCCCO)C(=O)[C@@H]4C12 (stereo partly drawn) , the logged z-score turned out to be 2.58

So for CN1C(=O)C2C=CC(C(O)Cc3ccccc3)N(Nc3ccccc3)C2C1=O (stereo not drawn) , the logged z-score turned out to be -0.709

So for [N-]=[N+]=NCc1ccccc1[C@@H]1OC(c2ccc(OCCCO)cc2)=N[C@]1(Cc1ccccc1N=[N+]=[N-])C(=O)N1CCOCC1 , the logged z-score turned out to be 0.37

So for COC(=O)[C@@]1(Cc2ccc(F)cc2)[C@H]2c3cc(C(=O)N4CCCC4)n(Cc4cc(C)n(C)n4)c3C[C@H]2CN1C(=O)c1ccccc1 , the logged z-score turned out to be -0.301

So for COC(=O)c1c(CC[C@@H](CO)NC(=O)N[C@H](Cn2cc(Cc3ccccc3)nn2)C(C)C)oc(C(C)=O)c1C(=O)OC , the logged z-score turned out to be 1.53

So for Cc1ccc(S[C@]2(C(=O)NCC(C)C)CC(=O)N(Cc3cc(C(F)(F)F)cc(C(F)(F)F)c3)[C@@H]2c2ccc(CO)cc2I)cc1 , the logged z-score turned out to be -0.301

So for O=C1O[C@H](c2ccccc2)[C@H](c2ccccc2)N2[C@H]1[C@@H](C(=O)NC[C@H](O)c1ccccc1)[C@]1(C(=O)Nc3ccccc31)[C@H]2c1ccc(OCCO)cc1 , the logged z-score turned out to be 0.0578

So for C=CC[C@]1(C(=O)N2CCCCC2)N=C(c2ccc(OCCCO)cc2)O[C@H]1c1ccccc1 , the logged z-score turned out to be -0.232

So for CCOC(=O)C[C@H]1[C@H](OC(=O)c2ccc(C(=O)c3ccccc3)cc2)[C@@H](NC(=O)c2ccc(-c3ccccc3)cc2)c2cc(OCCCO)ccc2N1C(=O)c1ccccc1 , the logged z-score turned out to be 0.0156

So for CN(C)C(=O)[C@]1(Cc2ccccc2N=[N+]=[N-])N=C(c2ccc(OCCCO)cc2)O[C@@H]1c1ccccc1 , the logged z-score turned out to be 1.38

So for COc1ccc(C(=O)Nc2ccc(CN3C(=O)[C@@]4(O[C@@H](CCn5cc([C@H](O)c6ccccc6)nn5)[C@H]([Si](C)(C)c5ccc(OC)cc5)[C@H]4C)c4ccccc43)cc2)cc1 , the logged z-score turned out to be 0.134

So for CCCCN1CC=CC23O[C@@H]4C=CCOC(=O)[C@@H]4[C@H]2C(=O)N(CCCCCO)[C@@H]3C1=O (stereo partly drawn) , the logged z-score turned out to be 0.0401

So for [N-]=[N+]=Nc1ccccc1C[C@@]1(C(=O)NCCN2CCOCC2)N=C(c2ccc(OCCCO)cc2)O[C@@H]1c1ccccc1 , the logged z-score turned out to be 0.368

So for COC(=O)[C@@]1(Cc2ccc(F)cc2)[C@H]2c3cc(C(=O)N(C)C)n(Cc4ccc(S(C)(=O)=O)cc4)c3C[C@H]2CN1C(=O)c1ccccc1 , the logged z-score turned out to be -0.594

So for COC(=O)[C@@]1(Cc2ccc(F)cc2)[C@H]2c3cc(C(=O)N(C)C)n(CC4CC4)c3C[C@H]2CN1C(=O)c1ccccc1 , the logged z-score turned out to be -0.884

So for CCCCCN1CC=CC23O[C@@H]4/C=C\CCCOC(=O)C4[C@H]2C(=O)N(CCCO)[C@@H]3C1=O (stereo partly drawn) , the logged z-score turned out to be 0.696

---

target: Streptavidin (Streptomyces avidinii); experiment: streptavidin binders on small-molecule microarray, primary screen, artefact control for SMM compound annotation, biophysical, 635/667 nm fluorescence (AID 1147); conditions: streptavidin binding, higher = more signal;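 further: signal reflects streptavidin binding to arrayed compounds as a control protein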
REPORTED_ENDPOINT: composite z-score
Number only, no unit.

So for NCCCCCNC(=O)[C@@H]1C[C@@H]2C(=O)N[C@@H](Cc3ccccc3)C(=O)N2[C@@H]1c1cccc(OCCO)c1 , the logged composite z-score turned out to be 0.44

So for C=CCN1C(=O)[C@]2(O[C@H](CCO)[C@@H]([Si](C)(C)c3ccc(OC)cc3)[C@@H]2C)c2cc(N3CCCCC3=O)ccc21 , the logged composite z-score turned out to be 0.802

So for CCCC=C(CCC)[C@@H](NC(=O)Oc1ccc(F)cc1)c1ccc(C(=O)OC)cc1 , the logged composite z-score turned out to be 1.55

So for COCCCNC(=O)C1N=C(c2ccc(OCCCO)cc2)N(c2ccccc2)O1 (centres undefined) , the logged composite z-score turned out to be 0.51

FYI, the data here is from PubChem BioAssay.
